Origin of values: ChEMBL document CHEMBL2218924

The following molecules are shown together with reported residual activity values.
systemName: Muscle, skeletal receptor tyrosine-protein kinase (Homo sapiens) (UniProt O15146)
Sequence (O15146 whole entry): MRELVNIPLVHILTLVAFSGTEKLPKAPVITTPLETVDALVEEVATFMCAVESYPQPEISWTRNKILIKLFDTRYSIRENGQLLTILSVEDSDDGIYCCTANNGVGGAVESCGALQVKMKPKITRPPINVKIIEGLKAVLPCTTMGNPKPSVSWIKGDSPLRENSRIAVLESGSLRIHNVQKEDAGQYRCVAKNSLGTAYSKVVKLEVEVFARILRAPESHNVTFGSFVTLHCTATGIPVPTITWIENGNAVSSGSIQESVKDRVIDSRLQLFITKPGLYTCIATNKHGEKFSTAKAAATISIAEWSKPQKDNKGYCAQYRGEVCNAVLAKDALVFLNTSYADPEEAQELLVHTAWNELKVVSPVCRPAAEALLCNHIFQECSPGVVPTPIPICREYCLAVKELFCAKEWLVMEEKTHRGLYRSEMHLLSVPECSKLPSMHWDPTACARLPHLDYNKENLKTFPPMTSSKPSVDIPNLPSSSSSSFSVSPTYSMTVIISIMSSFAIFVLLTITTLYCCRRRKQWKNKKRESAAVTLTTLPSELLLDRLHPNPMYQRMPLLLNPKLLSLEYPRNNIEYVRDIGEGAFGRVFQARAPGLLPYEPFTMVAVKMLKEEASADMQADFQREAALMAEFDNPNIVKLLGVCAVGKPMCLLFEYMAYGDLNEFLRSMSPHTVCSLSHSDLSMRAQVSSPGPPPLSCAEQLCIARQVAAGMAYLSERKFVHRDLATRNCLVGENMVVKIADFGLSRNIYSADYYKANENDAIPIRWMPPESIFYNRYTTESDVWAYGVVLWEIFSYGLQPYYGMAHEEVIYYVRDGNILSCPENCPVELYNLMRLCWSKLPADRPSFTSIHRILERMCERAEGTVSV
studyConditions: at 1 µM
assayReadout: residual activity (%)

>>> df
                                 smilescode       assayreadout  recordedvalue
0       Cn1cnc2cc3c(Nc4cccc(Br)c4)ncnc3cc21  residual activity            104
1       Cc1ccc(NC2=CC(=O)c3sc(C)nc3C2=O)cc1  residual activity             90
2  CC(C)n1cnc2/c(=N/c3cccc(Cl)c3)nc(NCCO)[nH]c21  residual activity             75
3  Oc1n[nH]c2nnc(-c3c(-c4ccccc4)nn4ccccc34)cc12  residual activity             87
4  NC(=O)c1ccc2[nH]c(-c3ccc(Oc4ccc(Cl)cc4)cc3)nc2c1  residual activity             84
5  O=C1Nc2cc(Br)ccc2/C1=C1/Nc2ccccc2/C1=N\O  residual activity             80

----------
systemName: Ribosomal protein S6 kinase alpha-6 (Homo sapiens) (UniProt Q9UK32)
Sequence (Q9UK32 whole entry): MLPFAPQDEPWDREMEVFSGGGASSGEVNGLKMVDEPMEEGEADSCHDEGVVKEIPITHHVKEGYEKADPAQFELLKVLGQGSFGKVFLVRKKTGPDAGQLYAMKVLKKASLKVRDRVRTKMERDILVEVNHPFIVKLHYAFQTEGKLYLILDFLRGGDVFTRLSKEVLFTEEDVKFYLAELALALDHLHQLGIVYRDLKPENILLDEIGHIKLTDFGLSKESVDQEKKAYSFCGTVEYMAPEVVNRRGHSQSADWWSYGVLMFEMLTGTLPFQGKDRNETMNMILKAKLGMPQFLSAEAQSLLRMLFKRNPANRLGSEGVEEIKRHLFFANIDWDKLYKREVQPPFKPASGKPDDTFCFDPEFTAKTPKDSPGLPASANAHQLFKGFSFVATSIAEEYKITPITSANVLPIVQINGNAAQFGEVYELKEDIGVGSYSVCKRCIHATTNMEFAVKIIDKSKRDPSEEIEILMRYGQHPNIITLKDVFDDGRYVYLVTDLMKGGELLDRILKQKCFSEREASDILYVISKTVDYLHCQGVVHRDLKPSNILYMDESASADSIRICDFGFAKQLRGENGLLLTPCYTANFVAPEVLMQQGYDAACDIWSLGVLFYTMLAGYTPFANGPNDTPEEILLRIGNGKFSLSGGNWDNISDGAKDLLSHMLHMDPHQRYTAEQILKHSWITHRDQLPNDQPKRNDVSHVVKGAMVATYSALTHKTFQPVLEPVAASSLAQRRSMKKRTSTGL
studyConditions: at 10 µM
assayReadout: residual activity (%)

>>> print(df.to_string())
                                  smilescode                                systemname       assayreadout  recordedvalue
 0           Cc1nc2cc3nc(-c4cccs4)cnc3cc2n1C  Ribosomal protein S6 kinase alpha-6 (Homo sapiens) (UniProt Q9UK32)  residual activity             84
 1                 CC(=O)c1ccc(N2CCOCC2)cc1O  Ribosomal protein S6 kinase alpha-6 (Homo sapiens) (UniProt Q9UK32)  residual activity            102
 2     CC(C)n1cnc2c(NCc3ccccc3)nc(NCCCO)nc21  Ribosomal protein S6 kinase alpha-6 (Homo sapiens) (UniProt Q9UK32)  residual activity             91
 3  Cc1cncc2cccc(S(=O)(=O)N3CCCN(C(=O)CN)C[C@H]3C)c12  Ribosomal protein S6 kinase alpha-6 (Homo sapiens) (UniProt Q9UK32)  residual activity             66
 4  Nc1cccc(-c2cc3c(Oc4cccc(O)c4)ncnc3[nH]2)c1  Ribosomal protein S6 kinase alpha-6 (Homo sapiens) (UniProt Q9UK32)  residual activity             41
 5  COc1cc2ncnc(Nc3ccc(Oc4ccccc4)cc3)c2cc1OC  Ribosomal protein S6 kinase alpha-6 (Homo sapiens) (UniProt Q9UK32)  residual activity            130
 6        Oc1ccc(Nc2nc(-c3ccc(Cl)cc3)cs2)cc1  Ribosomal protein S6 kinase alpha-6 (Homo sapiens) (UniProt Q9UK32)  residual activity            113
 7             COc1cc2ncc(-c3ccccc3)nc2cc1OC  Ribosomal protein S6 kinase alpha-6 (Homo sapiens) (UniProt Q9UK32)  residual activity             94
 8         COc1ccc(OC)c2c(=S)c3ccccc3[nH]c12  Ribosomal protein S6 kinase alpha-6 (Homo sapiens) (UniProt Q9UK32)  residual activity             98
 9  COc1ccc(C(=O)Nc2sc3c(c2C(N)=O)CCCC3)cc1OC  Ribosomal protein S6 kinase alpha-6 (Homo sapiens) (UniProt Q9UK32)  residual activity             99
10  NC(=O)c1ccc2[nH]c(-c3ccc(Oc4ccc(Cl)cc4)cc3)nc2c1  Ribosomal protein S6 kinase alpha-6 (Homo sapiens) (UniProt Q9UK32)  residual activity             29
11  COc1cc2ncnc(N3CCN(C(=O)Nc4ccc(Oc5ccccc5)cc4)CC3)c2cc1OC  Ribosomal protein S6 kinase alpha-6 (Homo sapiens) (UniProt Q9UK32)  residual activity            111
